- Tested on: KB
- method_summary: Cytotoxicity against human KB cells
- Type: functional, cell-based
IC50 listing for selected compounds.

compound	reported
COc1cc2ccc(=O)oc2cc1O [SCOPOLETIN]	4 µg/mL

Task: // returns reported IC50 for input COc1cc([C@@H]2c3cc4c(cc3[C@@H](O[C@@H]3O[C@@H]5CO[C@@H](C)O[C@H]5[C@H](O)[C@H]3O)[C@H]3COC(=O)[C@H]23)OCO4)cc(OC)c1O [ETOPOSIDE]
Output: 0.12 µg/mL

Task: // returns reported IC50 for input COC(=O)[C@H]1[C@@H](O)[C@@]2(O)c3c(OC)cc(OC)cc3O[C@@]2(c2ccc(OC)cc2)[C@@H]1c1ccccc1 [AGLAFOLIN]
Output: 0.001 µg/mL

Task: // returns reported IC50 for input COc1ccc([C@@]23Oc4cc(OC)cc(OC)c4[C@]2(O)[C@H](O)[C@H](C(=O)N(C)C)[C@H]3c2ccccc2)cc1 [ROCAGLAMIDE]
Output: 0.006 µg/mL

Data credit: ChEMBL document CHEMBL1146446
